# ASSAYED_SYSTEM: enzyme I (phosphoenolpyruvate-protein phosphotransferase, EC 2.7.3.9) of the E. coli phosphotransferase system (E. coli, UniProt P08839 1-575)
# ASSAY_OVERVIEW: cell-based or functional assay

{"columns": ["BINDER", "uncoupling P;Ipeptide/h"],
 "data": [
  ["KKWHRRKK [peptide 7 KKWHRRKK]", "0.29 Pi/peptide/h"],
  ["KKWHKRKK [peptide 8 KKWHKRKK]", "0.215 Pi/peptide/h"],
  ["KGWHKRKK [peptide 6 KGWHKRKK]", "0.23 Pi/peptide/h"],
  ["KKFHLRK [peptide 1 KKFHLRK]", "0.49 Pi/peptide/h"],
  ["KKFDLRK [peptide 3 KKFDLRK]", "0.05 Pi/peptide/h"],
  ["KKFHIRKR [peptide 9 KKFHIRKR]", "0.31 Pi/peptide/h"],
  ["KKWHLRKR [peptide 5 KKWHLRKR]", "0.3 Pi/peptide/h"]
]}
